Experiment: Terminal half life in iv dosed Wistar rat blood after 24 hrs by LC-MS analysis
Type: ADME, organism-based
Details: whole blood, read-out: beta t1/2 (converted)
Measured metric: half-life (h)
Numbers only here, please. The scale is h.

INPUT: Determine from records and report half-life for COC(=O)Nc1c(N)nc(-c2nc(Cc3ccccc3F)n3ncccc23)nc1N
OUTPUT: 0.5

INPUT: # return recorded half-life for input COC(=O)Nc1c(N)nc(-c2nn(Cc3ccccc3F)c3ncc(F)cc23)nc1N [VERICIGUAT]
OUTPUT: 3.4

INPUT: State its half-life for this compound: COC(=O)Nc1c(N)nc(-n2nc(Cc3ccccc3F)c3ncc(F)cc32)nc1N
OUTPUT: 1.5

INPUT: Output half-life of COC(=O)N(C)c1c(N)nc(-c2nn(Cc3ccccc3F)c3ncccc23)nc1N [RIOCIGUAT]
OUTPUT: 1.4

====

Molecular target: Guanylate cyclase soluble subunit alpha-1 (Rattus norvegicus)
Experiment: Stimulation of rat recombinant sGCalpha1 subunit expressed in CHO cells using alpha-[32P]GTP as substrate assessed as >=3 fold increase in [32P]cGMP formation after 10 mins by radioimmunoassay
Format: cell-based
Measured metric: MEC
Hey, just the number and the unit after it is fine.

INPUT: Give the measured MEC for COC(=O)N(CC(F)F)c1c(N)nc(-c2nn(Cc3ccccc3F)c3ncccc23)nc1N
OUTPUT: 0.1 µM

INPUT: Specify MEC for COC(=O)N(CC(F)(F)F)c1c(N)nc(-c2nn(Cc3ccccc3F)c3ncccc23)nc1N and stop.
OUTPUT: 0.1 µM

INPUT: Could you please provide reported MEC for COC(=O)N(Cc1ccccc1F)c1c(N)nc(-c2nn(Cc3ccccc3F)c3ncccc23)nc1N ? Thanks!
OUTPUT: 0.1 µM

====

Kindly state log10 of MEC for each of the entries shown.
Target: Guanylate cyclase soluble subunit alpha-1 (Rattus norvegicus) (UniProt P19686)
Sequence (P19686 whole entry): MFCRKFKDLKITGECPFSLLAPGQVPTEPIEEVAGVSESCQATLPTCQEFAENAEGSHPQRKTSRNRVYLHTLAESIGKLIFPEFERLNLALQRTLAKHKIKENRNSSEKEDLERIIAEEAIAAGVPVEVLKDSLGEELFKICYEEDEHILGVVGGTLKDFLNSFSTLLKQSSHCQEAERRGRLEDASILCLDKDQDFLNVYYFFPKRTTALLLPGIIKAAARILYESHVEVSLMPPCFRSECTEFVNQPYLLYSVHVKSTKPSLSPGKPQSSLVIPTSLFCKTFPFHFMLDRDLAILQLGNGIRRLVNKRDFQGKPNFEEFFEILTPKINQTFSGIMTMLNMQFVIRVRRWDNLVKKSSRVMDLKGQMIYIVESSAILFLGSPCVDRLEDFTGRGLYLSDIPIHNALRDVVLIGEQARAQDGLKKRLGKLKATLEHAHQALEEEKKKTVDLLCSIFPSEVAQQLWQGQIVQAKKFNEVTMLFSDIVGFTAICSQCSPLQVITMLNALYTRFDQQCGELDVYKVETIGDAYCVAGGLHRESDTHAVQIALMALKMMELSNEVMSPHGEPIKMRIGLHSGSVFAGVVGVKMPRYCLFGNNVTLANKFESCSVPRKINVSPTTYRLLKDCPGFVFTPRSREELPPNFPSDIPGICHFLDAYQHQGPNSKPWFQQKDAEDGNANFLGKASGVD
Assay: Stimulation of rat recombinant sGCalpha1 subunit expressed in CHO cells using alpha-[32P]GTP as substrate assessed as >=3 fold increase in [32P]cGMP formation after 10 mins by radioimmunoassay
Format: cell-based
Recorded MEC (log10, µM)

INPUT: Note down log10 of MEC recorded for Nc1nc(-c2nn(Cc3ccccc3F)c3ncccc23)nc(N)c1NC(=O)OCC(F)(F)F
OUTPUT: -0.70

INPUT: State, in one line, measured log10 of MEC of COC(=O)Nc1c(N)nc(-n2nc(Cc3ccccc3F)c3ncc(F)cc32)nc1N
OUTPUT: -0.30

INPUT: Quote log10 of MEC reported for COC(=O)Nc1c(N)nc(-c2nn(Cc3ccccc3F)c3nnccc23)nc1N please.
OUTPUT: 0.30

INPUT: Quote log10 of MEC reported for COC(=O)N(Cc1ccc(F)cc1)c1c(N)nc(-c2nn(Cc3ccccc3F)c3ncccc23)nc1N please.
OUTPUT: -0.15

INPUT: Determine its reported log10 of MEC: CC1(C)CN(c2c(N)nc(-c3nn(Cc4ccccc4F)c4ncccc34)nc2N)C(=O)O1
OUTPUT: -0.70

INPUT: Fill in reported log10 of MEC for this entry: COC(=O)Nc1c(N)nc(-c2nn(Cc3ccccc3F)c3ncc(F)cc23)nc1N
OUTPUT: -0.52

INPUT: Fill in reported log10 of MEC for this entry: COC(=O)Nc1c(N)nc(-c2nc(Cc3ccccc3F)n3ncccc23)nc1N
OUTPUT: -0.15

INPUT: Supply reported log10 of MEC belonging to this molecule: COC(=O)N(C)c1c(N)nc(-c2nn(Cc3ccccc3F)c3ncccc23)nc1N
OUTPUT: -1.52
